- SYSTEM: RXRα (Homo sapiens, UniProt P19793)
- Sequence (P19793 whole entry): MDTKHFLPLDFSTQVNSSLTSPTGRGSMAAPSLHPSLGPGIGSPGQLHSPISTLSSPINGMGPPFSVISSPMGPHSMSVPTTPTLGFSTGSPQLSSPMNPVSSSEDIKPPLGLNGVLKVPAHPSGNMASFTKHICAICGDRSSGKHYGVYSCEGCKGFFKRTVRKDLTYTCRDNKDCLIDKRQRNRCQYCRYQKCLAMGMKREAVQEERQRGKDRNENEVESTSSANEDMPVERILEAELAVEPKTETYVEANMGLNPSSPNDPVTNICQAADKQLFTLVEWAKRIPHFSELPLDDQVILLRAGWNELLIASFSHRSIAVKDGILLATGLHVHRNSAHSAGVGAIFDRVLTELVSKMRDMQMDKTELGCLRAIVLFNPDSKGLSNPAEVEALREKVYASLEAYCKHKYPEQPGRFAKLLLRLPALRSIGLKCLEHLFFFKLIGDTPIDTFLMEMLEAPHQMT
- ASSAY SUMMARY: co-transfection assay (RAR/RXR agonist activity, luciferase reporter in CV-1 cells)
- EXPERIMENTAL PARAMETERS: read-out: RXRα Pot
Entries annotated with measured EC50
Kindly answer with a numeric value in nM, unit omitted.

- COMPOUND: "CC(/C=C/C=C1\\CCc2c1ccc1c2C(C)(C)CCC1(C)C)=C\\C(=O)O [Compound 135b]"
  EC50 [nM]: 2780
- COMPOUND: "CC(/C=C/C=C1\\CCCc2cc3c(cc21)C(C)(C)CCC3(C)C)=C\\C(=O)O [Compound 109b]"
  EC50 [nM]: 2020
- COMPOUND: "CC(/C=C/CN1CCCCc2cc3c(cc21)C(C)(C)CCC3(C)C)=C\\C(=O)O [Compound 138b]"
  EC50 [nM]: 422
- COMPOUND: "CC(/C=C/C=C1\\CCOc2cc3c(cc21)C(C)(C)CCC3(C)C)=C\\C(=O)O [Compound 119b]"
  EC50 [nM]: 1660
- COMPOUND: "CC(/C=C/CC1CCCc2cc3c(cc21)C(C)(C)CCC3(C)C)=C\\C(=O)O (racemic) [Compound 124b]"
  EC50 [nM]: 38
- COMPOUND: "CC(/C=C/CN1CCCc2c1ccc1c2C(C)(C)CCC1(C)C)=C\\C(=O)O [Compound 143b]"
  EC50 [nM]: 393

Query :: Field request: EC50 | item: CC(/C=C/C=C1/CCOc2cc3c(cc21)C(C)(C)CCC3(C)C)=C\C(=O)O [Compound 144b]
Result :: 36

Query :: Field request: EC50 | item: CC(/C=C/C=C1/CCCc2cc3c(cc21)C(C)(C)CCC3(C)C)=C\C(=O)O [Compound 101b]
Result :: 35

// data source = patent EP0933350A1
